- Test system: HCI03 (cells of an ER-positive luminal breast cancer xenograft)
- protocol details: cell viability (% of vehicle); higher = less cytotoxic;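 further: PDX cells carrying CMV promoter-driven luciferase, viability read as total photon flux per second by IVIS imaging following D-luciferin, vehicle control 0.1% DMSO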
- experimental parameters: 10 µM; 72 h
Items are presented alongside their recorded cell viability.

molecule | cell viability
CNC1C(OC2C(OC3C(O)C(O)C(N=C(N)N)C(O)C3N=C(N)N)OC(C)C2(O)C=O)OC(CO)C(O)C1O.CNC1C(OC2C(OC3C(O)C(O)C(N=C(N)N)C(O)C3N=C(N)N)OC(C)C2(O)C=O)OC(CO)C(O)C1O.O=S(=O)(O)O.O=S(=O)(O)O.O=S(=O)(O)O (stereo unspecified) [Streptomycin sulfate] | 97.7
CC(C)NCC(O)c1ccc(O)c(O)c1.Cl (stereo unspecified) [Isoprenaline HCl] | 108
Cc1ccc(F)c(NC(=O)Nc2ccc(-c3cccc4[nH]nc(N)c34)cc2)c1 | 165
CC1(C)CCC(C)(C)c2cc(NC(=O)c3ccc(C(=O)O)cc3)ccc21 | 63.1
Cc1c(-c2ccc(O)cc2)n(Cc2ccc(OCCN3CCCCCC3)cc2)c2ccc(O)cc12.Cl [Bazedoxifene HCl] | 41.6
CN1CCCN=C1C=Cc1cccs1.O=C(O)c1cc2ccccc2c(Cc2c(O)c(C(=O)O)cc3ccccc23)c1O [Pyrantel Pamoate] | 117

----------
Items are presented alongside their recorded cell viability.
- System: WHIM30 (cells of a triple-negative basal-like breast cancer xenograft)
- protocol details: cell viability (% of vehicle); higher = less cytotoxic
- experimental parameters: 10 µM; 72 h
Structures can show the parent of a compound that is named as a salt.

compound | cell viability
Br.Br.Br.Br.Br.Cc1cc(N2CCN(C3CNC(C(=O)N4CCSC4)C3)CC2)n(-c2ccccc2)n1.Cc1cc(N2CCN(C3CNC(C(=O)N4CCSC4)C3)CC2)n(-c2ccccc2)n1 (stereo not given) [Teneligliptin hydrobromide] | 88.4
C=C1C(=CC=C2CCCC3(C)C2CCC3C(C)C=CC(C)C(C)C)CC(O)CC1O (stereo not given) | 180
Cc1cnc(C(=O)NCCc2ccc(S(=O)(=O)NC(=O)NC3CCCCC3)cc2)cn1 [Glipizide] | 138
NS(=O)(=O)c1cc2c(cc1Cl)NC=NS2(=O)=O [Chlorothiazide] | 124
Cl.NC12CC3CC(CC(C3)C1)C2 [Amantadine HCl] | 105
OC[C@@H](O)[C@@H](O)[C@H](O)[C@@H](O)CO | 120
C=C[C@]1(C)C[C@@H](OC(=O)CSC(C)(C)CNC(=O)[C@H](N)C(C)C)[C@]2(C)[C@H](C)CC[C@]3(CCC(=O)[C@H]32)[C@@H](C)[C@@H]1O [Valnemulin HCl] | 114
COc1cc2nccc(Oc3ccc(NC(=O)C4(C(=O)Nc5ccc(F)cc5)CC4)cc3)c2cc1OC.O=C(O)CC(O)C(=O)O [Cabozantinib malate (XL184)] | 56
CN1CCC(=C2c3ccccc3CCc3sccc32)CC1.O=C(O)CC(O)C(=O)O [Pizotifen Malate] | 174
N.N.[Cl][Pt+2][Cl] [Cisplatin] | 133

----------
Items are presented alongside their recorded cell viability.
- Test system: HCI03
- protocol details: cell viability (% of vehicle); higher = less cytotoxic
- experimental parameters: 10 µM; 72 h

compound | cell viability
CC(C)(C)c1ccc(C(=O)CCCN2CCC(OC(c3ccccc3)c3ccccc3)CC2)cc1 [Ebastine] | 70.2
CC1=C(C(=O)O)N2C(=O)C(NC(=O)C(N)c3ccccc3)C2SC1 (centres undefined) [Cephalexin] | 122
COc1c(N2CCNC(C)C2)c(F)cc2c(=O)c(C(=O)O)cn(C3CC3)c12 (centres undefined) [Gatifloxacin] | 81.1
CC1(C)SC2C(NC(=O)C(C(=O)[O-])c3ccccc3)C(=O)N2C1C(=O)[O-].[Na+].[Na+] (centres undefined) [Carbenicillin, Disodium Salt] | 92.6
